What Improvement in pH responsiveness of inhibitory peptide relative to WT was measured for each of the following?
# study.system: T1, thermostable variant of Streptomyces mobaraensis transglutaminase (Streptomyces mobaraensis, UniProt P81453 79-407)
# T1 sequence: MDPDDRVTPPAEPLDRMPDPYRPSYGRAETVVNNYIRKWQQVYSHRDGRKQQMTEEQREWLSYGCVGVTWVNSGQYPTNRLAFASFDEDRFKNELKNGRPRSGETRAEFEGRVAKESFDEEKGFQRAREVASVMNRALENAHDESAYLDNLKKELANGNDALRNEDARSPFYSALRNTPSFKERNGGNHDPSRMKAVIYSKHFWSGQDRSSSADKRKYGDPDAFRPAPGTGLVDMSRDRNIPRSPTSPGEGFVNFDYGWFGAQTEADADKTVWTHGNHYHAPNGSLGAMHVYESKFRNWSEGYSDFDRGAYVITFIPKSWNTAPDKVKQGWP
# experiment.summary: cell-based or functional assay

Please review the following examples before continuing.
>  <binder>
MDNGAGEEAKSYAETYRLTADDVANINALNESAPAASSAGPSFRAP [pro-peptide variant T9A]

>  <experimental.result>
> 1.2 fold

$$$$
>  <binder>
MDNGAGEETKSYAETYRRTADDVANINALNESAPAASSAGPSFRAP [pro-peptide variant L18R]

>  <experimental.result>
> 1.2 fold

$$$$

Batch of 7 binders: report Improvement in pH responsiveness of inhibitory peptide relative to WT for each.
1. MDNGAGEETKSYAKTYRLTADDVANINALNESAPAASSAGPSFRAP [pro-peptide variant E14K]
2. MDNGAGCETKSYAETYRLTADDVANINALNESAPAASSAGPSFRAP [pro-peptide variant E7C]
3. MDNGAGECTKSYAETYRLTADDVANINALNESAPAASSAGPSFRAP [pro-peptide variant E8C]
4. MDNGAGEETGSYAETYRLTADDVANINALNESAPAASSAGPSFRAP [pro-peptide variant K10G]
5. MDNGAGEEWKSYAETYRLTADDVANINALNESAPAASSAGPSFRAP [pro-peptide variant T9W]
6. MDNGAGEEHKSYAETYRLTADDVANINALNESAPAASSAGPSFRAP [pro-peptide variant T9H]
7. MDNGAGEERKSYAETYRLTADDVANINALNESAPAASSAGPSFRAP [pro-peptide variant T9R]

["> 5 fold", "> 1.2 fold", "> 1.2 fold", "> 5 fold", "> 1.2 fold", "> 1.2 fold", "> 1.2 fold"]

Data credit: patent US20250304927A1
